molecular target: Syk(h) (Homo sapiens); assay: Syk(h) kinase assay; format: biochemical; conditions: 3 μM; percent of control kinase activity
Recorded Inhibitory activity (% of control), Syk(h) for the following molecules

Study these solved cases before continuing.
CCN1CCC[C@H]1COc1ccc2cc(-c3n[nH]c4ccc(-c5nc(CC(C)(C)C)n[nH]5)cc34)ccc2c1
15 % of control
COc1ccc2cc(-c3n[nH]c4ccc(-c5n[nH]c(CN6CCOCC6)n5)cc34)ccc2c1
26 % of control
Fc1ccc(-c2n[nH]c3ccc(-c4n[nH]c(C5CCCC5)n4)cc23)cc1 [CC006, reference compound]
46 % of control
CC(C)Cc1nc(-c2ccc3[nH]nc(-c4ccc5cc(OCCN6CCCC6)ccc5c4)c3c2)n[nH]1
14 % of control
O=C(NC1CCCC1)c1cccc(-c2n[nH]c3ccc(-c4nc[nH]n4)cc23)c1 [CC007, reference compound]
51 % of control

Now let's try a different one.
Tell me its Inhibitory activity (% of control), Syk(h) on Syk(h) (Homo sapiens): CC(C)(C)Cc1nc(-c2ccc3[nH]nc(-c4ccc5cc(OCc6ccccn6)ccc5c4)c3c2)n[nH]1
47 % of control

###

Quick reference: Inhibitory activity (% of control), PDGFRα(h) of the listed items.
target: PDGFRα(h) (Homo sapiens, UniProt P16234); test: PDGFRα(h) kinase assay; assay type: biochemical; conditions: 3 μM; percent of control kinase activity
Sequence (P16234 24-1089): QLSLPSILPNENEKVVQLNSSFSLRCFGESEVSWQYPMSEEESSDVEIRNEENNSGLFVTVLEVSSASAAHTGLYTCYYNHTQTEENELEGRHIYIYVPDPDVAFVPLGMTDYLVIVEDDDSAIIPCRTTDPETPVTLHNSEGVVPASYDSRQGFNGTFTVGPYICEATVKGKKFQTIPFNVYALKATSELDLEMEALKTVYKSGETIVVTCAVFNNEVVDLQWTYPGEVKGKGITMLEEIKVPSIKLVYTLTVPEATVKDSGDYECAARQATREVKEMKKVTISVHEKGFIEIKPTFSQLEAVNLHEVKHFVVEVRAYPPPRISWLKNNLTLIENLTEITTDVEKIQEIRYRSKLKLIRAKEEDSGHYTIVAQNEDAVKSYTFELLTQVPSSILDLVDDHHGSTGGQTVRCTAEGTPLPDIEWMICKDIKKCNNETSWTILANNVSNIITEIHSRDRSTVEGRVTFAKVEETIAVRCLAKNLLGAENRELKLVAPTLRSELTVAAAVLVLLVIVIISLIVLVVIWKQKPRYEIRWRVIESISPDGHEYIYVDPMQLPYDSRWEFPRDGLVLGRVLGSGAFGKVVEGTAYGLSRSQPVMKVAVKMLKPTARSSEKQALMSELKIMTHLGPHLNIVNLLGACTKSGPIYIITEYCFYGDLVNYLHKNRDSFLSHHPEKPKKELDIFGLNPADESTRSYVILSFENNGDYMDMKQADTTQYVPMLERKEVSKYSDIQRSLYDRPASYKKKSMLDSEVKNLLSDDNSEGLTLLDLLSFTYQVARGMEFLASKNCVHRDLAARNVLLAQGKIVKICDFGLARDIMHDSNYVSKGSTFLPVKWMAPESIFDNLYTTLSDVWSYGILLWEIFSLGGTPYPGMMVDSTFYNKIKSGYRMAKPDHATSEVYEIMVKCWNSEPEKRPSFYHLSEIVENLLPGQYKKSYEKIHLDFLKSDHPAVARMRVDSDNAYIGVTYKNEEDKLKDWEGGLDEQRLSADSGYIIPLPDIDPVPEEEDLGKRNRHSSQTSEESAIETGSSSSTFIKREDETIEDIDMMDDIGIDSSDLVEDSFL

// worked examples, Inhibitory activity (% of control), PDGFRα(h) included
CC(C)(C)Cc1nc(-c2ccc3[nH]nc(-c4ccc5cc(OCc6ccccn6)ccc5c4)c3c2)n[nH]1 [CC004]
77 % of control
O=C(NC1CCCC1)c1cccc(-c2n[nH]c3ccc(-c4nc[nH]n4)cc23)c1 [CC007, reference compound]
108 % of control
CC(C)Cc1nc(-c2ccc3[nH]nc(-c4ccc5cc(OCCN6CCCC6)ccc5c4)c3c2)n[nH]1 [CC002]
71 % of control
COc1ccc2cc(-c3n[nH]c4ccc(-c5n[nH]c(CN6CCOCC6)n5)cc34)ccc2c1 [CC001]
72 % of control

Supply recorded Inhibitory activity (% of control), PDGFRα(h) for Fc1ccc(-c2n[nH]c3ccc(-c4n[nH]c(C5CCCC5)n4)cc23)cc1 [CC006, reference compound] here.
86 % of control

# return recorded Inhibitory activity (% of control), PDGFRα(h) for entry CCN1CCC[C@H]1COc1ccc2cc(-c3n[nH]c4ccc(-c5nc(CC(C)(C)C)n[nH]5)cc34)ccc2c1 [CC005]
28 % of control

###

biological target: Rsk1(h) (Homo sapiens); test: Rsk1(h) kinase assay; format: biochemical; conditions: 3 μM; percent of control kinase activity
Sequence (Q15418 whole entry): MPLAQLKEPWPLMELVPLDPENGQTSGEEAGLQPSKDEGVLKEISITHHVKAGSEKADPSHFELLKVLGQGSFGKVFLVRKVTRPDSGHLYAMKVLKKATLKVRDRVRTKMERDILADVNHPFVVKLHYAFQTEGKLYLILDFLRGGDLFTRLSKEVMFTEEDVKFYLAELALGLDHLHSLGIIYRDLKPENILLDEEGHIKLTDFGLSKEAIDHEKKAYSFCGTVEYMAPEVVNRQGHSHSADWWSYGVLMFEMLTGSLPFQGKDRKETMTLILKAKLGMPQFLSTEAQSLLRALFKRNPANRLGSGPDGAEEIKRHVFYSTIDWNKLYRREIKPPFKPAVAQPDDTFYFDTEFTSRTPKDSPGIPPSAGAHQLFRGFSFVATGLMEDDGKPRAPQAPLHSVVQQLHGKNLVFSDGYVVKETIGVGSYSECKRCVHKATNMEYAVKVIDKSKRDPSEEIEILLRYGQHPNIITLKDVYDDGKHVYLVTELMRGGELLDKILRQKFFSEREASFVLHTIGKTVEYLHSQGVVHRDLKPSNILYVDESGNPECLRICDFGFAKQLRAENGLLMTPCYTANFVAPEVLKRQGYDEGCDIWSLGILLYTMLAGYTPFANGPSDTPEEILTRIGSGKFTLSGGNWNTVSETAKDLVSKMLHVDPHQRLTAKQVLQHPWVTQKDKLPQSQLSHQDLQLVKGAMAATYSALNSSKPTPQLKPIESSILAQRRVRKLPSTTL
reported-property: Inhibitory activity (% of control), Rsk1(h)

Sample answers from the record:
CCN1CCC[C@H]1COc1ccc2cc(-c3n[nH]c4ccc(-c5nc(CC(C)(C)C)n[nH]5)cc34)ccc2c1 [CC005]
2 % of control
O=C(NC1CCCC1)c1cccc(-c2n[nH]c3ccc(-c4nc[nH]n4)cc23)c1 [CC007, reference compound]
51 % of control
CC(C)(C)Cc1nc(-c2ccc3[nH]nc(-c4ccc5cc(OCc6ccccn6)ccc5c4)c3c2)n[nH]1 [CC004]
29 % of control
COc1ccc2cc(-c3n[nH]c4ccc(-c5n[nH]c(CN6CCOCC6)n5)cc34)ccc2c1 [CC001]
4 % of control
Fc1ccc(-c2n[nH]c3ccc(-c4n[nH]c(C5CCCC5)n4)cc23)cc1 [CC006, reference compound]
43 % of control

For CC(C)Cc1nc(-c2ccc3[nH]nc(-c4ccc5cc(OCCN6CCCC6)ccc5c4)c3c2)n[nH]1 [CC002] , write its Inhibitory activity (% of control), Rsk1(h).
3 % of control

###

system: c-RAF(h); experiment: c-RAF(h) kinase assay; format: biochemical, human; conditions: 3 μM; percent of control kinase activity
Property: Inhibitory activity (% of control), c-RAF(h); scope: individual compounds

These solved cases illustrate the format of a correct answer.
Fc1ccc(-c2n[nH]c3ccc(-c4n[nH]c(C5CCCC5)n4)cc23)cc1 [CC006, reference compound]
99 % of control
COc1ccc2cc(-c3n[nH]c4ccc(-c5n[nH]c(CN6CCOCC6)n5)cc34)ccc2c1 [CC001]
99 % of control
O=C(NC1CCCC1)c1cccc(-c2n[nH]c3ccc(-c4nc[nH]n4)cc23)c1 [CC007, reference compound]
92 % of control

# return recorded Inhibitory activity (% of control), c-RAF(h) for entry CCN1CCC[C@H]1COc1ccc2cc(-c3n[nH]c4ccc(-c5nc(CC(C)(C)C)n[nH]5)cc34)ccc2c1 [CC005]
100 % of control

Specify reported Inhibitory activity (% of control), c-RAF(h) for the compound shown: CC(C)Cc1nc(-c2ccc3[nH]nc(-c4ccc5cc(OCCN6CCCC6)ccc5c4)c3c2)n[nH]1 [CC002]
96 % of control

Quick one: give measured Inhibitory activity (% of control), c-RAF(h) for CC(C)(C)Cc1nc(-c2ccc3[nH]nc(-c4ccc5cc(OCc6ccccn6)ccc5c4)c3c2)n[nH]1 [CC004]
85 % of control

###

target: UniProt Q8IW41; experiment: PRAK(h) kinase assay; type: biochemical; details: 3 μM; percent of control kinase activity
Sequence (Q8IW41 whole entry): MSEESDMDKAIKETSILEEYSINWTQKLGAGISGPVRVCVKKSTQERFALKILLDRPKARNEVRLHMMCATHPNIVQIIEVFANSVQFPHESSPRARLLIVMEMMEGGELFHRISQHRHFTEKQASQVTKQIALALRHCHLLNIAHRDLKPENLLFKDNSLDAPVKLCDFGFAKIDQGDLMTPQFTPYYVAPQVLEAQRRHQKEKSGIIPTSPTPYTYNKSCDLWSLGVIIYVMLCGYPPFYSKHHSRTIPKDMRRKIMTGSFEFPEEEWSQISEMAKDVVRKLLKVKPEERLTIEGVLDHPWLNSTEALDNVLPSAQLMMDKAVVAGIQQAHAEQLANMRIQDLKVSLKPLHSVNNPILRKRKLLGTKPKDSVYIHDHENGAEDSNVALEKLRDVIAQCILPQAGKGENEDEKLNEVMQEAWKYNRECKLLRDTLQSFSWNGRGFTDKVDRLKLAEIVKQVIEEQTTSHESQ
reported-property: Inhibitory activity (% of control), PRAK(h)

Fc1ccc(-c2n[nH]c3ccc(-c4n[nH]c(C5CCCC5)n4)cc23)cc1 [CC006, reference compound]
12 % of control
COc1ccc2cc(-c3n[nH]c4ccc(-c5n[nH]c(CN6CCOCC6)n5)cc34)ccc2c1
12 % of control
CC(C)(C)Cc1nc(-c2ccc3[nH]nc(-c4ccc5cc(OCc6ccccn6)ccc5c4)c3c2)n[nH]1
24 % of control
CCN1CCC[C@H]1COc1ccc2cc(-c3n[nH]c4ccc(-c5nc(CC(C)(C)C)n[nH]5)cc34)ccc2c1
10 % of control
CC(C)Cc1nc(-c2ccc3[nH]nc(-c4ccc5cc(OCCN6CCCC6)ccc5c4)c3c2)n[nH]1
6 % of control

Below: the item to evaluate.
Name the recorded Inhibitory activity (% of control), PRAK(h) of the item O=C(NC1CCCC1)c1cccc(-c2n[nH]c3ccc(-c4nc[nH]n4)cc23)c1 [CC007, reference compound] in your answer.
0 % of control

###

Inhibitory activity (% of control), Yes(h) values, listed per item
Molecular target: Yes(h) (Homo sapiens)
Sequence (P07947 whole entry): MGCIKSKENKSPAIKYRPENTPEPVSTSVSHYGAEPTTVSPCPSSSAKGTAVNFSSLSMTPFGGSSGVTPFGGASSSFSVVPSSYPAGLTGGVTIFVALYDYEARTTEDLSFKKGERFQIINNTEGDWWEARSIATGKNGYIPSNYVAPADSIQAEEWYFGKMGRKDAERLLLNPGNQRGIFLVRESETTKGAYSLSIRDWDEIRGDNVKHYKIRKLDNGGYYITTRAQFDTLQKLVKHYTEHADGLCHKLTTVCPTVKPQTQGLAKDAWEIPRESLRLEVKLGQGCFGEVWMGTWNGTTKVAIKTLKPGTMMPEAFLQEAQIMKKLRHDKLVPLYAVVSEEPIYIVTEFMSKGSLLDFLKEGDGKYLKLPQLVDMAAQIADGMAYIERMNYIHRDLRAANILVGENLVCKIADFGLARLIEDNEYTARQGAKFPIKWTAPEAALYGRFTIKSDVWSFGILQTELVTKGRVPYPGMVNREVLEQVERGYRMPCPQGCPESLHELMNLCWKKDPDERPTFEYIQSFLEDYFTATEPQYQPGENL
Assay: Yes(h) kinase assay
Assay type: biochemical
Details: 3 μM; percent of control kinase activity
Experimental: Six compounds (presumptive single agents) were tested against a panel of 50 kinases. The results are presented in Table 2; numbers for each kinase indicate the percent of control kinase activity in the presence of a 3μM concentration of the indicated agent. Agents that target two or more different kinases are useful in the methods of the invention as described elsewhere herein. […]

Recorded results for 5 molecules are shown here.
Fc1ccc(-c2n[nH]c3ccc(-c4n[nH]c(C5CCCC5)n4)cc23)cc1 [CC006, reference compound]
57 % of control
CC(C)(C)Cc1nc(-c2ccc3[nH]nc(-c4ccc5cc(OCc6ccccn6)ccc5c4)c3c2)n[nH]1
24 % of control
CC(C)Cc1nc(-c2ccc3[nH]nc(-c4ccc5cc(OCCN6CCCC6)ccc5c4)c3c2)n[nH]1
−3 % of control
COc1ccc2cc(-c3n[nH]c4ccc(-c5n[nH]c(CN6CCOCC6)n5)cc34)ccc2c1
2 % of control
CCN1CCC[C@H]1COc1ccc2cc(-c3n[nH]c4ccc(-c5nc(CC(C)(C)C)n[nH]5)cc34)ccc2c1
0 % of control

Give the measured Inhibitory activity (% of control), Yes(h) for O=C(NC1CCCC1)c1cccc(-c2n[nH]c3ccc(-c4nc[nH]n4)cc23)c1 [CC007, reference compound]
50 % of control

###

In this section we review reported Inhibitory activity (% of control), Fes(h) values for a set of compounds.
Target: UniProt P07332
Sequence (P07332 whole entry): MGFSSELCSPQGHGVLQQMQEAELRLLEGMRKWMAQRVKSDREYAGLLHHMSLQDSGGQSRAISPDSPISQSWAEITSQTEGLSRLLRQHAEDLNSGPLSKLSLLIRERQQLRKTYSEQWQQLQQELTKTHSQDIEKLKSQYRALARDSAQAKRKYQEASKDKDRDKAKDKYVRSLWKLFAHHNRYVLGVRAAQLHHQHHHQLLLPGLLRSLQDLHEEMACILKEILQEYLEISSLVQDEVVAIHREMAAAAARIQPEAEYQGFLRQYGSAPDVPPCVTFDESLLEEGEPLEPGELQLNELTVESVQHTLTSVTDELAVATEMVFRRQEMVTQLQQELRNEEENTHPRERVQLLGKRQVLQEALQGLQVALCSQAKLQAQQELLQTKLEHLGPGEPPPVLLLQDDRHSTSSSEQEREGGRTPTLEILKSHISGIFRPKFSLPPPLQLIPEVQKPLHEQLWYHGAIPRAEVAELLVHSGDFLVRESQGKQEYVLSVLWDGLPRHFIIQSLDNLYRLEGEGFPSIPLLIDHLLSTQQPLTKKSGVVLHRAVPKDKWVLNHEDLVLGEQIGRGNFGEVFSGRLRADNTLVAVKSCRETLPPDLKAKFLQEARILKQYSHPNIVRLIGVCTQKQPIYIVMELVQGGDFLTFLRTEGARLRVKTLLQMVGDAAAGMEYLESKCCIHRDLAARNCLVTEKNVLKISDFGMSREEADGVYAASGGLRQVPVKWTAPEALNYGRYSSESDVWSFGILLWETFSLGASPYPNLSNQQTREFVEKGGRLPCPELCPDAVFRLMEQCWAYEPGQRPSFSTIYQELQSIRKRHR
Test: Fes(h) kinase assay
Format: biochemical
Conditions: 3 μM; percent of control kinase activity
Description: Six compounds (presumptive single agents) were tested against a panel of 50 kinases. The results are presented in Table 2; numbers for each kinase indicate the percent of control kinase activity in the presence of a 3μM concentration of the indicated agent. Agents that target two or more different kinases are useful in the methods of the invention as described elsewhere herein. […]

Some compounds with known Inhibitory activity (% of control), Fes(h) results, for comparison:
COc1ccc2cc(-c3n[nH]c4ccc(-c5n[nH]c(CN6CCOCC6)n5)cc34)ccc2c1
34 % of control
O=C(NC1CCCC1)c1cccc(-c2n[nH]c3ccc(-c4nc[nH]n4)cc23)c1 [CC007, reference compound]
41 % of control
CC(C)(C)Cc1nc(-c2ccc3[nH]nc(-c4ccc5cc(OCc6ccccn6)ccc5c4)c3c2)n[nH]1
70 % of control
CC(C)Cc1nc(-c2ccc3[nH]nc(-c4ccc5cc(OCCN6CCCC6)ccc5c4)c3c2)n[nH]1
10 % of control
CCN1CCC[C@H]1COc1ccc2cc(-c3n[nH]c4ccc(-c5nc(CC(C)(C)C)n[nH]5)cc34)ccc2c1
8 % of control

Turning now to a further compound:
Please indicate recorded Inhibitory activity (% of control), Fes(h) of Fc1ccc(-c2n[nH]c3ccc(-c4n[nH]c(C5CCCC5)n4)cc23)cc1 [CC006, reference compound] measured with UniProt P07332.
70 % of control
